Data credit: ChEMBL document CHEMBL1201862

Tested on: SK-MEL-5
Test method notes: NCI tumour cell line growth inhibition, 48 h
The source made the active and inactive calls. Rule as the data show it: active = GI50 up to about 1.1 µM and inactive = higher.
Just give me one of these, please: yes = active, no = inactive

Could you please tell me the result logged for "CCOC(=O)CN(CC)C(=O)NC12CC3CC(CC(C3)C1)C2" in this assay?
no

Just curious, what result did "O=C(Nc1ccc(Cl)cc1)C(=O)C1=C(O)c2ccccc2OC1" get here?
no

For this compound, state the assay outcome: Cc1ccc(CC2(C(=O)O)Cc3ccc(C)cc3C2)cc1 (centres undefined)
no

Please state the recorded outcome for this compound: CC1CCC(O)(C(C)(C(=O)O)c2ccccc2)CC1 (centres undefined)
no

Called result for "C=CCNC1=C2C[C@@H](C)C[C@@H](OC)[C@H](OC(=O)CCN(C)C)[C@H](C)/C=C(\C)[C@@H](OC(N)=O)[C@H](OC)/C=C\C=C(/C)C(=O)NC(=CC1=O)C2=O"
yes

Identify the outcome logged in this assay for the compound shown: CC(=O)c1ccc2c(c1)CC1(C2)Cc2ccccc2C1=O (centres undefined)
no

Each compound tested received a call. Report the one for COC(=O)C1C(=O)CC(C)(O)C(C(=O)OC)C1c1ccc(N(C)C)cc1 (centres undefined) .
no

Identify the outcome logged in this assay for the compound shown: Cc1ccc(C(=O)N2c3ccccc3N(C)n3cccc3C2CC(=O)O)cc1 (centres undefined)
no

Called result for "COc1cc(OC)c2c3c(OC)cc(OC)c4c(=O)c(O)c(C[C@@H](C)O)c(c5c(C[C@@H](C)O)c(O)c(=O)c1c25)c43"
no

What outcome does the record of this test show for "CC(C)CCNC(=O)c1ccc(CNC(=O)/C=C/c2ccc(-c3ccccc3[N+](=O)[O-])o2)cc1" ?
no

Please share the test call associated with COC(=O)C1(Cc2ccccc2)Cc2ccccc2C1=O (centres undefined) .
no

Query: recorded result category for "Cc1ccc(N2CCc3c(C)c(C#N)c4nc5ccccc5n4c32)cc1" in this test
no

For this compound, state the assay outcome: "O=C1C2=C(C3=NCCc4c[nH]c1c43)c1c(cc(Br)c(O)c1Br)CCN2"
no

Could you check what this test reported for "C/C(=N/NS(=O)(=O)c1c(C)cc(C)cc1C)c1cccc[n+]1[O-]" ?
no

Assay outcome for "CCN(CC)c1ccc(/N=N/c2ccc(-c3nc4cccnc4o3)cc2)cc1" : what was it?
no

Per the records of this test, what outcome belongs to "C/C=C/C[C@@H](C)[C@@H](O)[C@H]1C(=O)N[C@@H](CC)C(=O)N(C)CC(=O)N(C)[C@@H](CC(C)C)C(=O)N[C@@H](C(C)C)C(=O)N(C)[C@@H](CC(C)C)C(=O)N[C@@H](C)C(=O)N[C@H](C)C(=O)N(C)[C@@H](CC(C)C)C(=O)N(C)[C@@H](CC(C)C)C(=O)N(C)[C@@H](C(C)C)C(=O)N1C" ?
no

Please let me know the test result on file for "S=C(S)N1CCN(c2ccc(Cl)c(Cl)c2)CC1" .
no

Record lookup: outcome of this test for "Cn1c(-c2cccs2)cc(-c2ccccc2)c1-c1cccs1" ?
no

Would you mind telling me which call this test gave CC1=Nc2c(O)nc(S)nc2NC(c2ccc(Cl)c(Cl)c2)C1 (centres undefined) ?
no

# lookup: test call for "CCn1c2ccc(C(=O)CCCN(C)C)cc2c2cc(C(=O)CCCN(C)C)ccc21"
no

Which outcome did this test record for the compound "COc1cccc(-c2nc(O)c3ccccc3n2)c1OC" ?
no

Could you kindly confirm the outcome this assay logged for "Oc1ccc(Br)cc1/C=N/c1ccc(/N=C/c2cc(Br)ccc2O)cc1" ?
no

Recorded test call requested for "Cc1cc(NS(=O)(=O)c2ccc(Nc3c4ccccc4nc4c(C(=O)Nc5ccc(S(=O)(=O)N=C(N)N)cc5)cccc34)cc2)no1"
no

How did this test come out for NC(=O)c1cn(C2OC(CO)C(O)C2O)c2nc[n+]([O-])c(N)c12 (centres undefined) ?
yes

Recorded test call requested for "Cc1ccc(S(=O)(=O)N2CCN(CCN(C)CCN3CCN(S(=O)(=O)c4ccc(C)cc4)CC3)CC2)cc1"
no

Would you mind telling me which call this test gave "CC(C)c1ccc(/C=C/c2cc(C(=O)NNC(=O)NC3CCCCC3)nc(S)n2)cc1" ?
no

Hello, I am checking results. What call was entered for COc1ccc(C2(O)C(S(=O)(=O)c3ccc(C)cc3)=Cc3ccc(OC)cc32)cc1 (centres undefined) ?
no

What classification did "O=C1Nc2cccc3ncn(c23)C2=C1CCCC2" end up with in this test?
no

Short answer needed: outcome of this test for CC1=C(/C=C/C(C)=C/C2CC(N(C)C)=CC(=O)O2)C(C)(C)CCC1 (centres undefined) ?
no

Lab log entry: "NS(=O)(=O)c1nnc(NS(=O)(=O)c2ccccc2[N+](=O)[O-])s1" — outcome as called in the assay?
no

For this compound, state the assay outcome: "CC(=O)/C(=C/N1CC(=O)NC1=S)C(=O)Nc1ccccc1C"
no

Record lookup: outcome of this test for Nc1nccc2c1ncn2C1C=C(CO)C(O)C1O (centres undefined) ?
no

Assay outcome for "CCOC(=O)[C@@]1(C)C=C2O[C@@H]3OC4(CCCCC4)O[C@@H]3C2=C2C(O)=CC=C(O)[C@]21C(=O)OC" : what was it?
no

Recorded call for "COc1ccc(/N=N/c2ccc3oc(=O)c(C(=O)Nc4ccc(OC)cc4)cc3c2)cc1" ?
no

* * *

Tested on: HCC 2998
Test method notes: NCI tumour cell line growth inhibition, 48 h
Structures can show the parent of a compound that is named as a salt. Active and inactive are the calls of the source. Cut-off read from the data, not from the text of the source: active = GI50 up to about 1.1 µM and inactive = higher.
Reported metric: GI50

Need GI50 of "C/C=C/C[C@@H](C)[C@@H](O)[C@H]1C(=O)N[C@@H](CC)C(=O)N(C)CC(=O)N(C)[C@@H](CC(C)C)C(=O)N[C@@H](C(C)C)C(=O)N(C)[C@@H](CC(C)C)C(=O)N[C@@H](C)C(=O)N[C@H](C)C(=O)N(C)[C@@H](CC(C)C)C(=O)N(C)[C@@H](CC(C)C)C(=O)N(C)[C@@H](C(C)C)C(=O)N1C" , thanks.
2.15 µM (inactive)

Requested field: GI50. Item: CC(C)C[C@H]1C(=O)N2CCC[C@H]2[C@]2(O)O[C@](NC(=O)[C@@H]3C=C4c5cccc6[nH]c(Br)c(c56)C[C@H]4N(C)C3)(C(C)C)C(=O)N12 [BROMOCRIPTINE MESYLATE]
32.8 µM (inactive)

Reported GI50 for CCC1(CN(C)C)CC/C(=C\c2ccc(OC)cc2)C1=O (stereo unspecified) : what is it?
> 100 µM (inactive)

Returns the measured GI50 for the input molecule. Input: "CCN(CC)COC(=S)S"
> 49.9 µM (inactive)

Query: GI50; subject: "CCCCCCCCCC(=O)CC(=O)c1c(O)cccc1O"
44.6 µM (inactive)

Look up GI50: "C=C1C(=O)[C@@]23CC[C@H]4[C@@](C)(CCC[C@@]4(C)C(=O)OC)[C@@H]2CC[C@]1(O)C3"
2.82 µM (inactive)

What does the record list as GI50 for "O=c1oc2ccccc2cc1-c1nnc(-c2ccccc2)s1" ?
12 µM (inactive)

Could you share which GI50 value was measured for N#CC(C(=O)CCCC(=O)Nc1ccccc1[N+](=O)[O-])c1c(Cl)cccc1Cl (stereo unspecified) ?
> 100 µM (inactive)

// GI50 lookup, key: "Sc1ncc2[nH]nnc2n1"
> 100 µM (inactive)

Name the recorded GI50 for O=C1O[C@@H](c2ccc3c(c2)OCO3)C2C(=O)O[C@@H](c3ccc4c(c3)OCO4)C12 (stereo partly specified) .
> 100 µM (inactive)

# query: GI50 of entry CC(C)=CCc1cc(C2COc3cc4c(c(O)c3C2=O)C=CC(C)(C)O4)c(O)cc1O (stereo unspecified)
18.7 µM (inactive)

Tell me the measured GI50 of CC1OC(OC2C(OC(=O)[C@]34CCC(C)(C)C[C@H]3C3=CC[C@@H]5[C@@]6(C)CC[C@H](OC7OC(C(=O)O)C(O)C(O)C7O)C(C)(C)[C@@H]6CC[C@@]5(C)[C@]3(C)C[C@H]4O)OCC(O)C2O)C(O)C(O)C1OC1OCC(OC2OCC(O)C(O)C2O)C(O)C1O (stereo partly specified) , please.
1.53 µM (inactive)

Recorded GI50 of "C[C@]12CC/C(=N\O)C=C1CC[C@@H]1[C@@H]2CC[C@]2(C)C(=N/O)/C(=C/c3ccncc3)C[C@@H]12" , please.
19.1 µM (inactive)

Requested read-out: GI50. Entry: "C[C@H]1O[C@@H](O[C@H]2[C@@H](O)C[C@H](O[C@H]3[C@@H](O)C[C@H](O[C@H]4CC[C@@]5(C)[C@H](CC[C@@H]6[C@@H]5CC[C@]5(C)[C@@H](C7=CC(=O)OC7)CC[C@]65O)C4)O[C@@H]3C)O[C@@H]2C)C[C@H](O)[C@@H]1O"
0.171 µM (active)

Reported GI50 for "O=C(Nc1ccc([As](=O)(O)O)cc1)Nc1cccc(Cl)c1Cl" : what is it?
> 100 µM (inactive)

Give its GI50 value. Item: "CC(C)(C)OC/C=C(/CO)[C@@H]1C=C[C@H](O)C1"
> 100 µM (inactive)
